meta.source: patent US12590062B2

# MEASURED_TARGET: PD-L1 (Homo sapiens, UniProt Q9NZQ7)
# Construct: determine if they can specifically dimerize the extracellular domains of PD-L1
# Sequence (Q9NZQ7 19-238 limits assumed): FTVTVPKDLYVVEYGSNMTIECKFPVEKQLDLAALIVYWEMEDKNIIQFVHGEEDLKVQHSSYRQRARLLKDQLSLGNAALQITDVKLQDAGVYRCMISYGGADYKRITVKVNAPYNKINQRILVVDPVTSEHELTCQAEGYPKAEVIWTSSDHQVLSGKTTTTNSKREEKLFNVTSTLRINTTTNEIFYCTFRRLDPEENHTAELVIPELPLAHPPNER
# Sequence (Q9NZQ7 19-238 limits assumed): as above
# TEST_DESCRIPTION: PD-L1/PD-L1 dimerization biochemical protein-protein interaction assay (ALPHA)
# Assay type: binding
# CONDITION_PARAMETERS: compound-induced PD-L1 dimerization, head prints '1 nM' (0.5 nM His-tagged PD-L1 and 0.5 nM FLAG-tagged PD-L1), read-out: AC50 PDL1 Dimer Alpha 1 nM
// NB: equality with 100 nM counts as condition not met; only AC50 strictly below is condition met

SMILES_TEXT | MEASURED_TARGET | GROUP
N#Cc1cncc(COc2nc(OCc3cccc(-c4cccc(-c5ccc(CNC[C@@H]6CCC(=O)N6)cc5)c4Cl)c3Cl)c(Br)cc2CNC[C@@H]2CCC(=O)N2)c1 | PD-L1 (Homo sapiens, UniProt Q9NZQ7) | condition not met
COc1ccc2cc(-c3cccc(-c4cccc(COc5cc(OCc6cncc(C#N)c6)c(CNC[C@@H](O)CC(=O)O)cc5Cl)c4C)c3C)ccc2c1CNC[C@@H](O)CC(=O)O | PD-L1 (Homo sapiens, UniProt Q9NZQ7) | condition not met
COc1nc(O[C@H]2CCc3c(-c4cccc(-c5cnc(CN6CC(O)C6)c(OC)n5)c4Cl)cccc32)c(Cl)cc1CN1CC[C@H](C(=O)O)C1 | PD-L1 (Homo sapiens, UniProt Q9NZQ7) | condition met
COc1nc(OCc2cccc(-c3cccc(-c4ccc(OCCNC[C@@H](O)CC(=O)O)cc4)c3C)c2C)c(Cl)cc1CNC[C@@H](O)CC(=O)O | PD-L1 (Homo sapiens, UniProt Q9NZQ7) | condition not met
COc1nc(-c2cccc(-c3cccc(-c4cnn(CCN)c4)c3Cl)c2Cl)ccc1CNC[C@@H]1CCC(=O)N1 | PD-L1 (Homo sapiens, UniProt Q9NZQ7) | condition not met

Okay, next one:
Data request: Lab note: AC50 threshold 100 nM. Does this compound come in strictly under it? Cc1c(COc2nc(OCc3cc(C#N)cc(C#N)c3)c(CN[C@@](C)(CO)C(=O)O)cc2Cl)cccc1-c1cccc(COc2nc(OCc3cc(C#N)cc(C#N)c3)c(CN[C@@](C)(CO)C(=O)O)cc2Cl)c1C
Data returned: condition not met

---

Catalogue of molecules with associated pEC50
# MEASURED_TARGET: PD-1/PD-L1 interaction (Homo sapiens, UniProt Q9NZQ7)
# Construct: expressed in transfected cells; host or cells: CHO cells (aAPC-PD-L1) co-cultured with Jurkat cells overexpressing PD-1 and an NFAT-luciferase reporter
# Sequence (Q9NZQ7 19-290): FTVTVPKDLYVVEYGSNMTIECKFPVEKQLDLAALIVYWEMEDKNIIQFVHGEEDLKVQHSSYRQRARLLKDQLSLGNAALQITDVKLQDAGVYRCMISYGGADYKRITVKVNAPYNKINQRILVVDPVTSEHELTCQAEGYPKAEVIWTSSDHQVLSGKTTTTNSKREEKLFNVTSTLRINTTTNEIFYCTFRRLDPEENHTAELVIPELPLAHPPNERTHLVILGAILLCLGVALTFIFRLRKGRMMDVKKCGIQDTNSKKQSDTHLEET
# TEST_DESCRIPTION: PD-1/PD-L1 NFAT reporter co-culture assay
# Assay type: cell-based
# CONDITION_PARAMETERS: Jurkat PD-1 NFAT-luciferase cells co-cultured with aAPC-PD-L1 CHO cells, 6 hrs at 37° C.; read-out: EC50 NFAT Luciferase
Worth noting: pEC50 values are minus log10 of concentrations stated in mol/L.

MOLECULE | MEASURED_TARGET | MEASURE | ENDPOINT_VALUE
Cc1c(COc2cc(OCc3nccs3)c(CNC[C@@H](O)CC(=O)O)cc2Cl)cccc1-c1cccc(COc2cc(OCc3nccs3)c(CNC[C@@H](O)CC(=O)O)cc2Cl)c1C [Example 262] | PD-1/PD-L1 interaction (Homo sapiens, UniProt Q9NZQ7) | pEC50 | 5.06
C[C@](CO)(NCc1cc(Br)c(OCc2cccc(-c3cccc(-c4ccc5c(c4)C[C@@H](N)C5)c3Cl)c2Cl)nc1OCc1cncc(C#N)c1)C(=O)O [Example 553] | PD-1/PD-L1 interaction (Homo sapiens, UniProt Q9NZQ7) | pEC50 | 7.15

Let's switch to this molecule now.
Data request: Answer with the recorded pEC50 of COc1nc(OCc2cccc(-c3cccc(COc4nc(OC)c(CNC[C@@H](O)CC(=O)O)cc4C(F)(F)F)c3C)c2C)c(C(F)(F)F)cc1CNC[C@@H](O)CC(=O)O [Example 160] only.
Data returned: 6.86

---

# MEASURED_TARGET: interaction between the recombinant extracellular domain (ECD) of PD-1 and native cell-bound PD-L1 (Homo sapiens)
# Sequence (Q9NZQ7 19-290): as the sequence (Q9NZQ7 19-290) above
# TEST_DESCRIPTION: CHO/PD-L1 cell capture assay
# CONDITION_PARAMETERS: CHO cells overexpressing PD-L1, pre-incubated 1 hr with compound, captured on biotinylated Fc-PD-1 coated plates, 75 min at room temperature
MEASURE: EC50 (nM)
Answer in nM, number only, no unit symbol.

Completed entries (count: 5):
MOLECULE | UNIT_TEXT | EC50
Cc1c(COc2cc(OCc3cncc(C#N)c3)c(CNC[C@@H](O)CC(=O)O)cc2Cl)cccc1-c1cccc(-c2ccc3sc(CNC[C@@H](O)CC(=O)O)cc3c2)c1C [Example 211] | nM | 45.6
Cc1c(COc2cc(OCC3CCOC3)c(CNC[C@@H](O)CC(=O)O)cc2Cl)cccc1-c1cccc(COc2cc(OCC3CCOC3)c(CNC[C@@H](O)CC(=O)O)cc2Cl)c1C (stereo partly drawn) [Example 280] | nM | 208
Cc1c(COc2nc(OCCC(N)=O)c(CNCC(=O)O)cc2Cl)cccc1-c1cccc(COc2nc(OCCC(N)=O)c(CNCC(=O)O)cc2Cl)c1C [Example 146] | nM | 184
COc1nc(OCc2cccc(-c3cccc(COc4nc(OC)c(CN(C)CC(=O)O)cc4Cl)c3C)c2C)c(Cl)cc1CN(C)CC(=O)O [Example 76] | nM | 83.2
Cc1c(COc2nc(OCc3cncc(C#N)c3)c(CNC[C@@H](O)CC(=O)O)cc2Cl)cccc1-c1cccc(COc2nc(OCc3cncc(C#N)c3)c(CNC[C@@H](O)CC(=O)O)cc2Cl)c1C [Example 34] | nM | 321

Data request: Answer with the recorded EC50 of COc1nc(OCc2cccc(-c3cccc(COc4nc(OC)c(CNC[C@@H](O)CC(=O)O)cc4C4CC4)c3C)c2C)c(C2CC2)cc1CNC[C@@H](O)CC(=O)O [Example 55] only.
Data returned: 315

---

# MEASURED_TARGET: PD-1/PD-L1 interaction (Homo sapiens, UniProt Q9NZQ7)
# Construct: expressed in transfected cells; host or cells: CHO cells (aAPC-PD-L1) co-cultured with Jurkat cells overexpressing PD-1 and an NFAT-luciferase reporter
# TEST_DESCRIPTION: PD-1/PD-L1 NFAT reporter co-culture assay
# Assay type: cell-based
# CONDITION_PARAMETERS: Jurkat PD-1 NFAT-luciferase cells co-cultured with aAPC-PD-L1 CHO cells, 6 hrs at 37° C.; read-out: EC50 NFAT Luciferase
Assign a class from recorded EC50; defined classes: LOW = under 80 nM, MID = from 80 nM up to 500 nM, HIGH = 500 nM and over

Some entries whose results are on file:
MOLECULE | GROUP
COc1nc(O[C@H]2CCc3c(-c4cccc(-c5ccc(CNC[C@@H]6CCC(=O)N6)cc5)c4Cl)cccc32)c(Cl)cc1CN1CC(O)C1 [Example 720] | HIGH
Cc1c(COc2cc(OCc3cncc(C(N)=O)c3)c(CNC[C@@H](O)CC(=O)O)cc2Cl)cccc1-c1cccc(COc2cc(OCc3cncc(C(N)=O)c3)c(CNC[C@@H](O)CC(=O)O)cc2Cl)c1C [Example 222] | HIGH
COc1nc(OCc2cccc(-c3cccc(COc4nc(OC)c(CNC(C)(C)C(=O)O)cc4Cl)c3C)c2C)c(Cl)cc1CN [Example 96] | HIGH
Cc1c(COc2nc(OCc3cc(C#N)cc(C#N)c3)c(CNC(C)(CO)C(=O)O)cc2Cl)cccc1-c1cccc(-c2ccc(OCCNCCO)cc2)c1C (centres unmarked) [Example 471] | MID
Cc1c(COc2nc(OCCN3CCOCC3)c(CNC[C@@H](O)CC(=O)O)cc2Cl)cccc1-c1cccc(COc2nc(OCCN3CCOCC3)c(CNC[C@@H](O)CC(=O)O)cc2Cl)c1C [Example 159] | HIGH
C[C@](CO)(NCc1cc(Br)c(OCc2cccc(-c3cccc(-c4ccc5c(c4)C[C@@H](N)C5)c3Cl)c2Cl)nc1OCc1cncc(S(C)(=O)=O)c1)C(=O)O [Example 547] | LOW

Data request: Which bin, given its EC50, does Cc1c(COc2cc(OCc3cncc(C#N)c3)c(CNC[C@@H](O)CC(=O)O)cc2Cl)cccc1-c1cccc(-c2ccc3c(CNC[C@@H](O)CC(=O)O)ccnc3c2)c1C [Example 569] occupy?
Data returned: LOW

---

# MEASURED_TARGET: PD-1/PD-L1 interaction (Homo sapiens)
# Construct: expressed in transfected cells; host or cells: CHO cells (aAPC-PD-L1) co-cultured with Jurkat cells overexpressing PD-1 and an NFAT-luciferase reporter
# TEST_DESCRIPTION: PD-1/PD-L1 NFAT reporter co-culture assay
# Format: cell-based
# CONDITION_PARAMETERS: Jurkat PD-1 NFAT-luciferase cells co-cultured with aAPC-PD-L1 CHO cells, 6 hrs at 37° C.; read-out: EC50 NFAT Luciferase
Catalogue of compounds with associated EC50
Answer in nM, number only, no unit symbol.

COMPOUND | UNIT_TEXT | ENDPOINT_VALUE
Cc1c(COc2cc(OCc3cncc(C#N)c3)c(CNC[C@@H](O)CC(=O)O)cc2Cl)cccc1-c1cccc(-c2nc3c(Cl)cc(CNC[C@@H](O)CC(=O)O)cn3n2)c1C [Example 393] | nM | 118

Data request: Answer with the recorded EC50 of COc1cc(-c2cccc(-c3cccc4c3CC[C@@H]4Oc3nc(OC)c(CNC[C@@H]4CCC(=O)N4)cc3Cl)c2Cl)nc(Cl)c1CNC[C@@H]1CCC(=O)N1 [Example 799] only.
Data returned: 167
